Tested on: LXFL 529
experiment: NCI tumour cell line growth inhibition, 48 h
Calls of active or inactive are those of the source. Cut-off read from the data, not from the text of the source: active = GI50 up to about 1.1 µM and inactive = higher.
Answer with one of the outcomes T for active, F for inactive

| compound | category |
| --- | --- |
| CC(=O)C1C(=O)C(=O)N(c2ccc(Cl)cc2C)C1=O (stereo unspecified) | F |
| CC(C)=CC1CCc2ccccc2N1S(=O)(=O)c1ccc(C)cc1 (stereo unspecified) | F |
| CC(=O)Oc1ccc(Nn2c3ccccc3c3ccccc32)c(C)c1 | F |
| O=C(c1ccccc1)C1N=NN(Cc2ccccc2[N+](=O)[O-])C1C(=O)c1ccccc1 (stereo unspecified) | F |
| COc1c(O)c2c3c(c(C)cc(O)c3c1O)C(=O)C(O)(C(C)(C)C(C)=O)C2=O (stereo unspecified) | F |
| COc1ccc(C2ON(c3cccc(C)n3)CC=C2C)cc1 (stereo unspecified) | F |
| CC(=O)C1(O)Cc2c(O)c3c(c(O)c2C(OC2CC(N)C(O)C(C)O2)C1)C(=O)c1ccccc1C3=O (stereo unspecified) | T |
| CNC(=O)OCc1nc(SC(C)C)n(C)c1COC(=O)NC | F |

Below: the item to evaluate.
# fetch the recorded call for c1ccc2c(c1)nc1n2CSC1 here
F
